biological target: purified recombinant HIV-1 reverse transcriptase (Human immunodeficiency virus type 1 group M subtype B); construct: purified recombinant HIV-1 reverse transcriptase; made in house; host or cells: Escherichia coli; assay: reverse transcriptase inhibition, poly(rA)/(dT) template primer, [3H]dTTP uptake; assay type: biochemical
Strictly below 10 µM in IC50: T. Otherwise: F.

CCn1c(CO)nc(C(C)C)c1Sc1cccc(F)c1 = T
COC(=O)C(C)c1nc(C)n(C)c1Sc1cc(C)cc(C)c1 (centres unmarked) = F
CC(=O)OCc1nc(C(C)C)c(Sc2cc(Cl)cc(Cl)c2)n1C = F

Now look at this entry.
Is 10 µM strictly greater than the compound's reported IC50? compound: "Cc1ncccc1Cn1c(COC(N)=O)nc(C(C)C)c1Sc1cc(Cl)cc(Cl)c1"
F

====

Here the recorded pIC50 is given for each entry.
Target: purified recombinant HIV-1 reverse transcriptase (Human immunodeficiency virus type 1 group M subtype B)
Construct: purified recombinant HIV-1 reverse transcriptase; made in house; host or cells: Escherichia coli
Assay: reverse transcriptase inhibition, poly(rA)/(dT) template primer, [3H]dTTP uptake
Assay type: biochemical
Method: The reverse transcriptase activity of each of the compounds synthesized in Examples was assayed by the following procedures. Using the purified recombinant HIV-1 reverse transcriptase RT, E.C. 2.7.7.49) obtained by expression in Escherichia Coli, a 96-well plate assay system was established for assaying a large number of samples. The RT inhibitory activity was determined as follows. […]
When answering, recall that pIC50 equals minus log10 of the concentration in mol/L, and write that number alone.

Consider the reported pIC50 for these compounds:
CCn1c(CN)nc(C(C)C)c1Sc1cccc(Cl)c1 = 6.09
CC(C)c1nc(CCOC(N)=O)n(CCOC(N)=O)c1Sc1cc(Cl)cc(Cl)c1 = 5.36
CC(C)c1nc(COC(N)=O)n(C)c1Sc1cc(Cl)cc(Cl)c1 = 5.87
Cc1cc(C)cc(Sc2c(C(C)C)nc(C)n2C)c1 = 5.12
CC(C)c1nc(COC(N)=O)n(CC(F)(F)F)c1Sc1cc(Cl)cc(Cl)c1 = 5.25
CC(C)c1nc(CO)n(CC(C)(C)O)c1Sc1cc(Cl)cc(Cl)c1 = 4.59

// lookup pIC50 for "CC(C)c1nc(CN(C)C)n(C)c1Sc1cc(Cl)cc(Cl)c1"
3.89

Thanks! And "CC(C)c1nc(CO)n(CCc2ccccc2)c1Sc1cc(Cl)cc(Cl)c1" ?
4.07

Next compound: "Cc1cc(C)cc(Sc2c(C(C)C)nc(C=O)n2C)c1"
3.90

Consider next the compound CC(C)c1nc(CCCO)n(CCO)c1Sc1cc(Cl)cc(Cl)c1 [Compound 137d] in the same way.
5.18

====

molecular target: purified recombinant HIV-1 reverse transcriptase (Human immunodeficiency virus type 1 group M subtype B, UniProt P04585); construct: purified recombinant HIV-1 reverse transcriptase; made in house; host or cells: Escherichia coli; assay: reverse transcriptase inhibition, poly(rA)/(dT) template primer, [3H]dTTP uptake; type: biochemical
// NB: equality with 2 µM counts as False; only IC50 strictly below is True

Criterion: IC50 strictly below 2 µM. Is it met by "CCn1c(CO)nc(C(C)C)c1Sc1cccc(Cl)c1" ?
True

What do we get for "CC(C)c1nc(CNC(N)=O)n(C)c1Sc1cc(Cl)cc(Cl)c1" ?
False

Further, for "Cc1cc(C)cc(Sc2c(C(C)C)nc(C)n2Cc2ccccc2)c1" ?
False

Try the compound "CCCn1c(COC(N)=O)nc(C(C)C)c1Sc1cccc(Cl)c1"
True

Same for CC(C)c1nc(CO)n(Cc2cccs2)c1Sc1cc(Cl)cc(Cl)c1.Cl [Compound I-126, hydrochloride]
False

Another compound to look at: "CC(C)c1nc(CC(N)=O)n(C)c1Sc1cc(Cl)cc(Cl)c1"
False

Another compound to look at: "CCn1c(CCCOC(N)=O)nc(C(C)C)c1Sc1cc(Cl)cc(Cl)c1"
True

What about this compound? "CC(C)c1nc(CCO)n(Cc2ccccc2N)c1Sc1cc(Cl)cc(Cl)c1"
False

====

target: purified recombinant HIV-1 reverse transcriptase (Human immunodeficiency virus type 1 group M subtype B, UniProt P04585); construct: purified recombinant HIV-1 reverse transcriptase; made in house; host or cells: Escherichia coli; assay: reverse transcriptase inhibition, poly(rA)/(dT) template primer, [3H]dTTP uptake; type: biochemical
Measured log10 IC50, listed per entry for reference.
Reminder: these figures are log10 of reported IC50, in µM before transformation.

Cc1cc(C)cc(S(=O)(=O)c2c(C(C)C)nc(C)n2C)c1 [Compound I-105] = 2.23
CC(C)c1nc(CN)n(CC(F)(F)F)c1Sc1cc(Cl)cc(Cl)c1 [Compound I-76] = 0.94
CC(C)c1nc(CN)n(C)c1Cc1cc(Cl)cc(Cl)c1 [Compound I-101] = 1.91

For CC(C)c1nc(COC(N)=O)n(Cc2ccccc2)c1Sc1cccc(Cl)c1 [Compound I-46] , what is its reported log10 IC50?
0.28

Try CC(C)c1nc(CCCOC(N)=O)n(CCOC(N)=O)c1Sc1cc(Cl)cc(Cl)c1 [Compound I-151] next.
0.79

====

Listing of entries alongside the reported CC50 at 120 h.
assay: cytotoxicity in MT-4 cells (MTT, culture medium in place of HIV); assay type: cell-based; conditions: human, mt-4 cells
// note: answer is a bare numeric in µg/mL

Solved cases (6 shown):
CC(C)c1nc(CO)n(CC(C)(C)O)c1Sc1cc(Cl)cc(Cl)c1 = 12.5
CC(C)c1nc(CO)n(CCc2ccccn2)c1Sc1cc(Cl)cc(Cl)c1 [Compound 112a] = 6.3
Cc1ncccc1Cn1c(CO)nc(C(C)C)c1Sc1cc(Cl)cc(Cl)c1 [Compound 119a] = 12.5
CC(C)c1nc(COC(N)=O)n(C)c1Sc1cccc(Cl)c1 = 8
CC(C)c1nc(COC(N)=O)n(Cc2ccc(=O)[nH]c2)c1Sc1cc(Cl)cc(Cl)c1 = 38.8
CC(C)c1nc(CO)n(Cc2cnc3ccccc3c2)c1Sc1cc(Cl)cc(Cl)c1 = 100

I would be grateful if you could share the reported CC50 at 120 h for "CCn1c(CCCOC(N)=O)nc(C(C)C)c1Sc1cc(Cl)cc(Cl)c1" .
6.3

====

assay: cytotoxicity in MT-4 cells (MTT, culture medium in place of HIV); format: cell-based; conditions: human, mt-4 cells
Measure Name: CC50 at 120 h

Example results:
CC(C)c1nc(CO)n(CCCc2ccccn2)c1Sc1cc(Cl)cc(Cl)c1 [Compound 112b] = 6.3 to 12.5 µg/mL
CC(C)c1nc(CCO)n(Cc2ccc([N+](=O)[O-])cc2)c1Sc1cc(Cl)cc(Cl)c1 [Compound 126a] = 6.3 µg/mL
CC(C)c1nc(CO)n(Cc2ccc([N+](=O)[O-])cc2)c1Sc1cc(Cl)cc(Cl)c1 [Compound 103a] = 6.3 to 12.5 µg/mL
CC(Cn1c(COC(N)=O)nc(C(C)C)c1Sc1cc(Cl)cc(Cl)c1)OC(N)=O (centres unmarked) = 12.5 to 25 µg/mL
CC(C)c1nc(CO)n(Cc2ccccc2N)c1Sc1cc(Cl)cc(Cl)c1 = 3.1 µg/mL
CC(C)c1nc(COC(N)=O)n(CCOC(N)=O)c1Sc1cc(Cl)cc(Cl)c1 = 12.5 to 25 µg/mL
CC(C)c1nc(CCO)n(Cc2cccc(N)c2)c1Sc1cc(Cl)cc(Cl)c1 = 25 to 50 µg/mL

Please turn your attention to the following entry.
# CC50 at 120 h lookup, item "CC(C)c1nc(COC(N)=O)n(Cc2cccnc2)c1Sc1cc(Cl)cc(Cl)c1"
12.5 to 24 µg/mL

====

molecular target: purified recombinant HIV-1 reverse transcriptase (Human immunodeficiency virus type 1 group M subtype B); construct: purified recombinant HIV-1 reverse transcriptase; made in house; host or cells: Escherichia coli; assay: reverse transcriptase inhibition, poly(rA)/(dT) template primer, [3H]dTTP uptake; assay type: biochemical
# t = IC50 below 8 µM (exclusive); f = IC50 at/above 8 µM

# count of solved cases: 5
Cc1cc(C)cc(Sc2c(C(C)C)nc(C=NN)n2C)c1 = f
CC(C)c1nc(CO)n(Cc2ccccc2)c1Sc1cccc(Cl)c1 = t
CCn1c(CN)nc(C(C)C)c1Sc1ccccc1 = t
CC(C)c1nc(CCO)n(Cc2ccc([N+](=O)[O-])cc2)c1Sc1cc(Cl)cc(Cl)c1 [Compound 126a] = t
CC(C)c1nc(CO)n(CF)c1Sc1cc(Cl)cc(Cl)c1 = t

Please determine if "CNC(=O)OCc1nc(C(C)C)c(Sc2cc(Cl)cc(Cl)c2)n1C" is below 8 µM in terms of IC50.
f

What about this compound? CC(C)c1nc(CO)n(Cc2ccc(N)cc2)c1Sc1cc(Cl)cc(Cl)c1 [Compound 104a]
t

Lookup "CC(C)c1nc(CCOC(N)=O)n(Cc2cccc(N)c2)c1Sc1cc(Cl)cc(Cl)c1"
f

Another: "CC(C)c1nc(CO)n(C)c1Cc1cccc(Cl)c1"
f
